Entry source: PubChem BioAssay (NCI)

test system: SK-OV-3 ovarian; test: NCI-60 one-dose screen, 48 h (100 = growth as untreated, 0 = no growth, -100 = all killed); details: 10 µM unless noted
This is part of a sample that, as a whole, favours compounds with a hit. Of some 83,000 tested, about 20% had one in any assay.
This section presents compounds with their documented growth values.
metric_name: growth (%)

* COc1ccc2c(c1)c(-c1nnc(N)nc1-c1cn(C)c3ccccc13)cn2C | 102
* O=C1c2c(c3c4ccc(Br)cc4oc3c3[nH]c4ccccc4c23)C(=O)N1CCO | 37.4
* COc1ccc(-c2oc3cc(O)cc(O)c3c(=O)c2OC)cc1O | 19.2
* COc1cc(/C=N/n2cnc3oc(-c4ccccc4)cc3c2=N)cc(CN2CCOCC2)c1O | 68.4
* CC(=O)c1ccc(NC(=O)COc2ccc(C3SCC(=O)N3c3ccc(Br)cc3)cc2)cc1 (stereo unspecified) | 105
* CCN(CC)c1ccc2cc(C(=O)NCCOCCOCCOCCn3cc(CCC(=O)Nc4ccc(C(=O)c5ccc(NC(=O)OC(C)(C)C)cc5)cc4)nn3)c(=O)oc2c1 | 98.3
* CN1C(=O)/C(=C/C=C/c2ccco2)SC1=S | 98.9
* O=C(C[n+]1ccnc2ccccc21)c1ccc(O)c(O)c1 | 112
* Cc1nn(-c2ccccc2)c2nc(CCl)[nH]c(=O)c12 | 122
* COc1ccc(-c2nc(SCCC(C)C)nc(N/N=C\c3ccc(O)cc3)c2C#N)cc1 | 109
* C=C1C(=O)O[C@@H]2/C=C(/C)C3=CC(=O)[C@@](C)(C[C@H](OC(=O)/C(C)=C\C)[C@@H]12)O3 | 92.6
